assay: yeast growth modulation, basal conditions, primary screen, YJM789 clinical isolate, OD600, 24 h (AID 1089);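 also: growth of clinical yeast isolate S. cerevisiae YJM 789 seeded 1000 cells per well; test concentration not given here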; details: S. cerevisiae YJM789 growth, higher = more signal, called active from +8 up or from −8 down
property-label: z-score
Reply with the value as a number alone.

Examples from the recorded data:
compound=CCCC[C@@H]1C[C@H]1[C@@H](NC(=O)c1ccco1)c1ccc(Cl)cc1 result_value=0.622
compound="CCOC(=O)C1=CCC(c2ccccc2)N(S(=O)(=O)CC[Si](C)(C)C)C1 (stereo unspecified)" result_value=-0.465
compound=CC(C)[C@@H](CO)NC(=O)[C@H]1[C@@H](c2ccccc2)N(c2ccccc2)O[C@@H]1C result_value=-0.0247
compound=C=CCNC(=O)[C@@H]1[C@H]2C(=O)O[C@H](c3ccccc3)[C@H](c3ccccc3)N2[C@H](c2ccc(OCCO)cc2)[C@@]12C(=O)Nc1ccc(C#CCCO)cc12 result_value=0.85
compound=COCC(=C=CC[C@@H](O)c1ccccc1OCCO)C[C@@H](O)c1cc(Cl)cc(Cl)c1O result_value=0.157
compound="O=C1C2C=CC(C(O)C(c3ccccc3)c3ccccc3)N(n3cnnc3)C2C(=O)N1Cc1ccccc1 (stereo unspecified)" result_value=-0.743
compound=C=CCN1C(=O)[C@@]2(O[C@@H](CCO)[C@H]([Si](C)(C)c3ccc(OC)cc3)[C@H]2C)c2cc(NC(=O)c3ccc(OC)cc3)ccc21 result_value=0.411
compound="CCOc1cc(C(O)C2C=CC3C(=O)N(c4ccccc4)C(=O)C3N2Nc2ccccc2)ccc1O (stereo unspecified)" result_value=0.881
compound=COCCOC(=O)N1C(=O)[C@@]2(c3ccccc31)[C@H](c1ccccc1OCCO)N1[C@H](c3ccccc3)[C@H](c3ccccc3)OC(=O)[C@H]1[C@@H]2C(=O)Nc1nc2ccccc2s1 result_value=1.68
compound="CC(C)(C)OC(=O)CC[C@]1(C(=O)NCC(O)CO)COC(c2ccc(OCCCO)cc2)=N1 (stereo partly specified)" result_value=0.65

// next entry
Measured z-score of COC(=O)[C@@]1(Cc2ccccc2)[C@H]2c3cc(C(=O)N(C)C)n(CCSCCO)c3C[C@H]2CN1C(=O)c1ccccc1 : -0.177

---

tested on: Fibrinogen (Alexa647-labelled); assay: fibrinogen binders on compound microarrays, profiling panel, artefact control for SMM control-protein annotation, biochemical, small-molecule microarray, 635/667 nm fluorescence (AID 1131); details: fibrinogen-A647 binding fluorescence, higher = more signal;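 also: z-score merges 667 nm fluorescence with per-spot signal-to-noise over triplicate slides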
property-label: composite z-score
Just the number, please, no unit after it.

Just so you know, measured composite z-score for CCOC(=O)C1=CCC(c2ccccc2)N(S(=O)(=O)CC[Si](C)(C)C)C1 (centres undefined) came out at -0.325

The recorded composite z-score for entry COC(=O)[C@@]1(Cc2ccc(OC)cc2)[C@H]2c3cc(C(=O)N(C)C)n(CCN4CNCC4=O)c3C[C@H]2CN1C(=O)c1ccccc1 equals 0.151

---

assay: HepG2 liver cancer cell viability effects, profiling panel, resazurin fluorescence, 24 h, PK04 Diversity Set (AID 1172); conditions: higher = more signal; also: test concentration not given here
Each entry below carries its reported z-score.
// response body must contain only the number

molecule=CC(=O)NCCCC[C@@H]1NC(=O)[C@@H]2C[C@H](C(=O)NCCCCN(C)C)[C@H](c3cccc(OCCO)c3)N2C1=O result_value=1.03

Consider COc1ccc(C(O)C2C=CC3C(=O)NC(=O)C3N2Nc2ccccn2)cc1 (stereo unspecified) . Its measured z-score is -0.396

Sure, the documented z-score for CN1C(=O)C2C=CC(C(O)c3cc(C(F)(F)F)cc(C(F)(F)F)c3)N(N3CCCCC3)C2C1=O (stereo unspecified) is -0.55

---

test: A549 cell viability effects, profiling panel, calcein-AM fluorescence, 48 h, basal (AID 1162); conditions: higher = more signal; also: test concentration not given here
property-label: z-score
Returns: the value as a bare number; no unit string appended.

compound_structure_string=COCCCN1C(=O)[C@@]2(c3ccc([N+](=O)[O-])cc3)CC(=O)N(C3CCCCC3)[C@@H]2c2ccc(CO)cc21 property_label=z-score result_value=-0.794
compound_structure_string=COCC(=C=CC[C@@H](O)c1ccccc1OCCO)C[C@@H](O)c1cc(Cl)cc(Cl)c1O property_label=z-score result_value=0.14

Kindly consider the entry below.
For reference, reported z-score for C=C(/C(=C/C[C@@H](OC(C)=O)c1ccc(OCCO)cc1)c1cnc2ccccc2c1)C(C)C stands at 2.72

---

List of composite z-score values.
system: Human papillomavirus type 1a E7 protein (residues 1-88); assay: HPV1a E7 small-molecule binders, primary screen, biochemical, small-molecule microarray, residues 1-88, 635 nm (AID 1129); details: small-molecule microarray binding, fluorescence 635 nm; higher = more signal

Given item O=C1NC(=O)C2C1C=CC(C(O)C(c1ccccc1)c1ccccc1)N2Nc1ccc(Cl)cc1Cl (centres undefined) , the value recorded as its composite z-score is 1.15

The reported value for COC(=O)C(CC#Cc1ccc2c(c1)[C@]1(C(=O)N2)[C@H](c2ccc(O)cc2)N2[C@H](c3ccccc3)[C@H](c3ccccc3)OC(=O)[C@H]2[C@@H]1C(=O)Nc1nc2ccccc2s1)C(=O)OC in terms of composite z-score is 1.22

---

test: fission yeast growth modulation, primary screen, strain 972, OD600, 24 h, no modulator (AID 1090);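 also: basal condition with compound alone and no growth modifier present; test concentration not given here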; conditions: S. pombe 972 growth, higher = more signal, called active from +8 up or from −8 down
property-label: z-score
# print the numeric value only

compound=CCOC(=O)C[C@H]1[C@H](OC(=O)Cc2ccc3c(c2)OCO3)[C@@H](NC(=O)c2ccc3ccccc3c2)c2cc(OCCCO)ccc2N1C(=O)c1ccccc1 property_label=z-score result_value=0.175
compound=O=C1NCC(=O)N2[C@@H]1C[C@@H](C(=O)O)[C@H]2c1cccc(OCCO)c1 property_label=z-score result_value=-14.2
compound="O=C1OCCC/C=C\\[C@H]2OC34C=CCN(Cn5nnc6ccccc65)C(=O)[C@H]3N(CCO)C(=O)[C@@H]4C12 (some centres undefined)" property_label=z-score result_value=-0.0999
compound=COc1ccc([Si](C)(C)[C@@H]2[C@@H](CC(=O)N3Cc4ccccc4C[C@H]3CO)O[C@]3(C(=O)N(C)c4c(Br)cc(C)cc43)[C@H]2C)cc1 property_label=z-score result_value=1.2
compound=COC(=O)C(CC#Cc1ccc2c(c1)[C@]1(C(=O)N2)[C@H](C(=O)O)[C@H]2C(=O)O[C@H](c3ccccc3)[C@H](c3ccccc3)N2[C@@H]1c1ccc(O)cc1)C(=O)OC property_label=z-score result_value=0.819
compound=C#CCN(CC=C(C)C)[C@H](CO)c1ccccc1 property_label=z-score result_value=-4.47
compound=COC(=O)[C@@]1(Cc2ccc(F)cc2)[C@@H]2[C@@H](CC(=O)[C@H]2CC(=O)C(=O)N(C)C)CN1C(=O)c1ccccc1 property_label=z-score result_value=2.12
compound=CCOC(=O)[C@H]1C/C=C/C[C@H](C(=O)OCC)C(=O)O[C@H]2[C@@H](OC)O[C@H](CO)[C@@H](OC(=O)Nc3cccc(F)c3)[C@@H]2OC1=O property_label=z-score result_value=0.268
compound=COc1ccc(CCN2C(=O)[C@@]3(Cc4ccccc42)c2ccccc2C(=O)N(Cc2ccccc2C(F)(F)F)[C@H]3c2ccc(CO)cc2)cc1 property_label=z-score result_value=-0.414
compound="CN1C(=O)C2C=CC(C(O)c3cccs3)N(Nc3ccccc3)C2C1=O (centres undefined)" property_label=z-score result_value=0.917

Per the records, this compound ( C=CCOC(=O)[C@@H]1[C@H]2C(=O)O[C@H](c3ccccc3)[C@H](c3ccccc3)N2[C@H](c2ccc(OCCOC(=O)[C@@H]3C[C@@H]4C(=O)N[C@@H](CCCC[N+](C)(C)C)C(=O)N4[C@@H]3c3cccc(OCCO)c3)cc2)[C@@]12C(=O)Nc1ccc(I)cc12 ) has z-score equal to -0.945

Per the record, [N-]=[N+]=Nc1ccccc1C[C@]1(C(N)=O)N=C(c2ccc(OCCCO)cc2)O[C@H]1c1ccccc1 has z-score of 0.248

# z-score of COC(=O)[C@@]1(Cc2ccc(OC)cc2)[C@H]2c3cc(C(=O)N(C)C)n(CCN4CNCC4=O)c3C[C@H]2CN1C(=O)c1ccccc1 = 0.687

Per the record, COCCOC(=O)N1C(=O)[C@@]2(c3cc(C#CCNC(N)=O)ccc31)[C@H](C(=O)NC[C@H](O)c1ccccc1)[C@H]1C(=O)O[C@H](c3ccccc3)[C@H](c3ccccc3)N1[C@@H]2c1ccccc1OCCO has z-score of 1.11

---

target: Carbonic anhydrase 2 (Homo sapiens) (UniProt P00918); assay: CAII small-molecule binders, profiling panel, biochemical, small-molecule microarray, Alexa647-labelled CAII (AID 1122); settings: CAII-A647 binding fluorescence, higher = more signal
property-label: composite z-score
// return just the number, without any unit appended

Below: 6 molecules and their reported composite z-score.
molecule=CN(C)CCCNC(=O)[C@@]1(c2ccc([N+](=O)[O-])cc2)CC(=O)N(C2CCCCC2)[C@@H]1c1ccc(CO)cc1 target_entity="Carbonic anhydrase 2 (Homo sapiens) (UniProt P00918)" result_value=0.395
molecule=O=C(O)[C@@]1(CCS(=O)(=O)c2ccccc2)COC(c2ccc(OCCCO)cc2)=N1 target_entity="Carbonic anhydrase 2 (Homo sapiens) (UniProt P00918)" result_value=0.815
molecule=COCCOC(=O)N1C(=O)[C@@]2(c3cc(C#Cc4ccc(OC)cc4)ccc31)[C@H](C(=O)N1CCCCCCC1)[C@H]1C(=O)O[C@H](c3ccccc3)[C@H](c3ccccc3)N1[C@@H]2c1ccc(OCCO)cc1 target_entity="Carbonic anhydrase 2 (Homo sapiens) (UniProt P00918)" result_value=0.712
molecule="COc1ccc(C(=O)O[C@H]2CC[C@]3(C)C4=C(CCC3C2(C)C)[C@]2(C)CC[C@H]([C@H](C)CCCC(C)C)[C@@]2(C)CC4)cc1 (some centres undefined)" target_entity="Carbonic anhydrase 2 (Homo sapiens) (UniProt P00918)" result_value=-0.008
molecule="CCCCN1CC=CC23O[C@@H]4/C=C\\CCC(C)OC(=O)C4[C@H]2C(=O)N(CCCCCO)[C@@H]3C1=O (some centres undefined)" target_entity="Carbonic anhydrase 2 (Homo sapiens) (UniProt P00918)" result_value=0.867
molecule="CN1C(=O)C2C=CC(C(O)C3=C[C@H]4C[C@@H](C3)C4(C)C)N(Nc3ccccc3)C2C1=O (some centres undefined)" target_entity="Carbonic anhydrase 2 (Homo sapiens) (UniProt P00918)" result_value=0.645

# composite z-score (molecule: C[C@@]1([C@@H](NC(=O)c2ccccc2)c2ccc(-c3ccccc3)cc2)C[C@H]1C1CCCCC1 ) is -0.137

Entry C=C(COC)/C(=C/C[C@@H](OC(C)=O)c1ccc(OCCO)cc1)c1cc(C(=O)OC)ccc1OC , composite z-score reported as 0.591

Per the record, COc1ccc([Si](C)(C)[C@H]2[C@H](CCO)O[C@@]3(C(=O)N(C)c4c(Br)cc(C)cc43)[C@@H]2C)cc1 has composite z-score of 0.473

These measurements were taken from PubChem BioAssay.
